Origin of the recorded values: patent US20260274955A1

# TARGET_DESC: T1, Anti-CD28 Fab (SEQ ID NOs: 202, 203)
# T1 construct: biotinylated and captured on neutravidin coated plates in the phage ELISA
# TEST: phage ELISA on captured Fab, wells pre-incubated with CD28 antigen (competitor: CD28);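 further: bound clonal phage detected with an HRP-linked anti-M13 antibody, compared against wells that received blocking buffer alone without CD28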
REPORTED_ENDPOINT: Anti-CD28 Fab signal in the presence of CD28
Respond numerically, and do not add a unit to the figure.

BINDER	ENDPOINT_RESULT
YCDGHSPLYIWKCL [Phage-157]	0.09
YCSGHAPEYMAKCL [Phage-287]	0.06
YCDGHLEEYKQKCL [Phage-165]	0.08
YCDGHLIEYMEKCL [Phage-238]	0.06

Value lookup for Anti-CD28 Fab signal in the presence of CD28; key = YCSGHAPIYMAKCL [Phage-200]
0.07

Name the reported Anti-CD28 Fab signal in the presence of CD28 value associated with the binder YCDGHAEQYMEKCL [Phage-215]
0.07

// Anti-CD28 Fab signal in the presence of CD28 lookup, key: YCDGHLNEYMEKCL [Phage-298]
0.06

Query (binder): YCEGHAPEYMYKCL [Phage-235] ; field requested: Anti-CD28 Fab signal in the presence of CD28
0.07
